Attribute: % Rmax, binding to hCD16a-V158
- tested_on: CD16a-V158 (FcgRIIIa-V158) (Homo sapiens, UniProt P08637, F176V)
- Sequence (P08637 17-208 F176V limits assumed): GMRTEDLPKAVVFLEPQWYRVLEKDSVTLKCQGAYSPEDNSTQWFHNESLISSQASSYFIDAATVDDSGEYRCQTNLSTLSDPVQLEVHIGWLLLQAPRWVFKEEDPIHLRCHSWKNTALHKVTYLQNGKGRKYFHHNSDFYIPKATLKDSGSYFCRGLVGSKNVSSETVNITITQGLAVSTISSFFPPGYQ
- assay_details: SPR binding to FcgR-his: CD16a-V158
- run_conditions: 1 μM antibody, anti-his Fab captured FcgR-his
Please state the figure in %; there is no need to write the unit.

>  <molecule>
mAb7-IgG2.5G1-AY-V27 (protein, left off: another chain or arm of the molecule) constant: ASTKGPSVFPLAPSSRSTSESTAALGCLVKDYFPEPVTVSWNSGALTSGVHTFPAVLQSSGLYSLSSVVTVPSSNFGTQTYTCNVDHKPSNTKVDKTVERKCCVECPPCPAPELLGGPSVFLFPPKPKDTLMISRTPEVTCVVVDVEHEDPEVKFNWYVDGVEVHNAKTKPREEQYNSTYRVVSVLTVLHQDWLNGKEYKCKVSNKALPAPIEKTISKAKGQPREPQVYTLPPSREEMTKNQVSLTCLVKGFYPSDIAVEWESNGQPENNYKTTPPVLDSDGSFFLYSKLTVDKSRWQQGNVFSCSVMHEALHNHYTQKSLSLSPGK

>  <% Rmax, binding to hCD16a-V158 [%]>
32

$$$$
>  <molecule>
mAb11-IgG2.3 (protein, left off: another chain or arm of the molecule) constant: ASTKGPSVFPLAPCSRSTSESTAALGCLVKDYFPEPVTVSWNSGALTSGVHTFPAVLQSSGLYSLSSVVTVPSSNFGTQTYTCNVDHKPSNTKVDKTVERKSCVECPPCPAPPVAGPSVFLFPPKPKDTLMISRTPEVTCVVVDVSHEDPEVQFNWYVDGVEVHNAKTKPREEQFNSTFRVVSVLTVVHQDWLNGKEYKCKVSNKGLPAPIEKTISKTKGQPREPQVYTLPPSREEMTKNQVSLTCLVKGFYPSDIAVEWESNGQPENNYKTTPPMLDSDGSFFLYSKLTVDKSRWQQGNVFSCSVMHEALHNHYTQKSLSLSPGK

>  <% Rmax, binding to hCD16a-V158 [%]>
1

$$$$
>  <molecule>
mAb7-IgG2.3G1-AY-V27 (protein, left off: another chain or arm of the molecule) constant: ASTKGPSVFPLAPCSRSTSESTAALGCLVKDYFPEPVTVSWNSGALTSGVHTFPAVLQSSGLYSLSSVVTVPSSNFGTQTYTCNVDHKPSNTKVDKTVERKSCVECPPCPAPELLGGPSVFLFPPKPKDTLMISRTPEVTCVVVDVEHEDPEVKFNWYVDGVEVHNAKTKPREEQYNSTYRVVSVLTVLHQDWLNGKEYKCKVSNKALPAPIEKTISKAKGQPREPQVYTLPPSREEMTKNQVSLTCLVKGFYPSDIAVEWESNGQPENNYKTTPPVLDSDGSFFLYSKLTVDKSRWQQGNVFSCSVMHEALHNHYTQKSLSLSPGK

>  <% Rmax, binding to hCD16a-V158 [%]>
26

$$$$
>  <molecule>
mAb12-IgG2.5 (protein, left off: another chain or arm of the molecule) constant: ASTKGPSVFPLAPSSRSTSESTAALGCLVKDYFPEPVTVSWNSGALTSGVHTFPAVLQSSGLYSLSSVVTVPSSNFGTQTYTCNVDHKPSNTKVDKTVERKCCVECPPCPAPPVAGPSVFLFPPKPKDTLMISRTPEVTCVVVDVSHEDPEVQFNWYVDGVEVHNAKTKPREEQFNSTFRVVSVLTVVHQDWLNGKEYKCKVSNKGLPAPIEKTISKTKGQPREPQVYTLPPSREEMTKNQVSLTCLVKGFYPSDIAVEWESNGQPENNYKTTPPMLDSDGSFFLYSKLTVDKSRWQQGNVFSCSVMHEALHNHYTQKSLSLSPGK

>  <% Rmax, binding to hCD16a-V158 [%]>
1

$$$$

Continue with the next molecule.
Look at this molecule and give its reported % Rmax, binding to hCD16a-V158. mAb6-IgG2.3 (protein, left off: another chain or arm of the molecule) constant: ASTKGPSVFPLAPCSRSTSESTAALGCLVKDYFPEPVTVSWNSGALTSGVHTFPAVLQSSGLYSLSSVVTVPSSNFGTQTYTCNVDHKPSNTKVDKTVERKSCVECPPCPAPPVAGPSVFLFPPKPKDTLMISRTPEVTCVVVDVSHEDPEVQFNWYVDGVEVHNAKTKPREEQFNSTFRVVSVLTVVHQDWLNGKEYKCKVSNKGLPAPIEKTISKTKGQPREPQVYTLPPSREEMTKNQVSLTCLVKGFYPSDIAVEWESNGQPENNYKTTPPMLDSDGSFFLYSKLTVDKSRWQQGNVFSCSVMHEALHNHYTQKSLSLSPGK
1
